// reported reverse-splicing fitness per item
B1: Azoarcus group I ribozyme (parent)
chain: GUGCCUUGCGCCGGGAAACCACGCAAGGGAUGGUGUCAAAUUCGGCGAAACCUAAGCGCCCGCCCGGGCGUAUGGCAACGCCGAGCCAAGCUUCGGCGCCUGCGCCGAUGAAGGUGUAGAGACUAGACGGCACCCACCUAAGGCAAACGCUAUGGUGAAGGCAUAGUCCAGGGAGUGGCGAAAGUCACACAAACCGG

# Variants of: B1
# ASSAY DETAILS: reverse-splicing fitness (ratio to wild type); higher = more active; in vitro selection; Mg2+ level not given
Please state the value as a number alone, without comment.

stdin: Fill in the blank: the reported reverse-splicing fitness of C82G A111U C150A C169U U176A is ____.
stdout: 0.0148

stdin: Try this variant next: C82U A111U C150G C169A U176G
stdout: 0.00774
